# testedSystem: Receptor tyrosine-protein kinase erbB-2 (Homo sapiens)
# runDescription: reducers of endogenous Her2 protein level, primary screen, SKBR3 breast tumor cells, AlphaScreen, ATP viability (AID 461);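 note: lower value means less Her2 protein in the cells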
# testConditions: 18-24 h, at 10 µM, stronger effect = lower value
Checkbox rule: Her2 level lower than 90% = y; Her2 level not lower than 90% = n.

The examples below pair each entry with its known result.
*Q* Lab note: confirm whether the reported Her2 level for this compound is below 90%, equality not counting. compound: CCOc1cc(NC(=O)c2ccco2)c(OCC)cc1NC(=O)COc1ccccc1C
*A* y

*Q* Could you do the same for Cc1ccc(-c2nnc(SC(C)C#N)n2N)cc1 (stereo unspecified) , please?
*A* y

*Q* # repeat for O=C(OCCCN1C(=O)c2ccccc2C1=O)c1ccco1
*A* n

New cases:
*Q* Dear reviewer, please state whether Cc1ccccc1OCc1nc2ccccc2c(=O)n1/N=C/c1ccco1 has Her2 level strictly beneath 90%.
*A* n

*Q* Also, CCn1cc(C(=O)OCc2ccc(F)cc2)c(=O)c2ccc(C)nc21 please.
*A* y

*Q* Could you do the same for CCOC(=O)c1sc2nc(SCC(=O)NCc3ccco3)n(Cc3ccccc3)c(=O)c2c1C , please?
*A* y

*Q* Subsequent entry: CCCn1c(SCC(=O)Nc2nnc(-c3ccccc3)s2)nnc1-c1ccccn1
*A* n

*Q* Could you do the same for Cn1cccc1Cc1nnc(SCC(N)=O)n1-c1ccc(F)cc1 , please?
*A* n

*Q* // query: Cc1cccc(-n2c(=O)cc(N3CCN(c4ccc(F)cc4)CC3)[nH]c2=O)c1
*A* n

*Q* Please do the same for O=C1CCC(c2ccccc2)N1C(=O)c1cccnc1 (stereo unspecified) as well.
*A* n

###

# runDescription: reversal of MRP1-mediated doxorubicin resistance, pilot screen, H69AR cells, doxorubicin co-treatment (AID 601)
# testConditions: H69AR cells, CellTiter-Glo, 72 h; compound alone cytotoxicity; at 10 µM
measuredMetric: viability (%)
All answers are understood in %, so give the number only.

Solved cases below.
*Q* Suppose we examine the compound Cc1cc(-c2ccccc2)nc(SCc2ccc(C(=O)O)o2)n1 ; what viability value has been reported?
*A* 97.5

*Q* Further, for CCOc1ccccc1Nc1nnc(SCC(=O)N2CCCC2)s1 ?
*A* 101

Continuing:
*Q* Name the reported viability value associated with the compound COc1ccc(CCN2C(=O)CC(N3CCN(S(=O)(=O)c4ccccc4)CC3)C2=O)cc1 (stereo unspecified)
*A* 96.7

*Q* COc1ccccc1N1CCN(c2cc(N3CCCC3)nc(C)n2)CC1 , same question.
*A* 87.8

*Q* Similarly, CC(=O)OC(C(=O)NC1CCCCC1)c1ccncc1 (stereo unspecified) ?
*A* 109

*Q* // repeat for c1ccc(CC2CCN(Cc3nc(-c4ccccc4)no3)CC2)cc1 and report
*A* 87.9

*Q* Same read-out for CC1(C)C2CCC1(CS(=O)(=O)NCc1ccc(C(=O)O)cc1)C(=O)C2 (stereo unspecified) ?
*A* 108

*Q* # repeat for O=C(Nc1ccccc1Cl)c1c(F)c(F)c(F)c(F)c1F
*A* 90.2

*Q* For CN1CCN(c2nc3c(c(=O)n(C)c(=O)n3C)n2Cc2cccc3ccccc23)CC1 then?
*A* 84

*Q* Further, for O=C(c1cccc2c1C(=O)N(Cc1cccnc1)C2)N1CCN(c2ccccc2)CC1 ?
*A* 93.3

*Q* Again, but for Cc1c(NC(=O)Cn2nc(C(=O)O)c3ccccc3c2=O)c(=O)n(-c2ccccc2)n1C
*A* 101
